# measuredTarget: type-B cholecystokynin (CCK-B) or gastrin receptors (Oryctolagus cuniculus, UniProt P46627)
# Construct: rabbit gastric mucosa cells were prepared by conventional techniques; endogenous in cells; host or cells: freshly isolated rabbit gastric mucosa cells (collagenase/pronase digestion)
# Sequence (P46627 1-452): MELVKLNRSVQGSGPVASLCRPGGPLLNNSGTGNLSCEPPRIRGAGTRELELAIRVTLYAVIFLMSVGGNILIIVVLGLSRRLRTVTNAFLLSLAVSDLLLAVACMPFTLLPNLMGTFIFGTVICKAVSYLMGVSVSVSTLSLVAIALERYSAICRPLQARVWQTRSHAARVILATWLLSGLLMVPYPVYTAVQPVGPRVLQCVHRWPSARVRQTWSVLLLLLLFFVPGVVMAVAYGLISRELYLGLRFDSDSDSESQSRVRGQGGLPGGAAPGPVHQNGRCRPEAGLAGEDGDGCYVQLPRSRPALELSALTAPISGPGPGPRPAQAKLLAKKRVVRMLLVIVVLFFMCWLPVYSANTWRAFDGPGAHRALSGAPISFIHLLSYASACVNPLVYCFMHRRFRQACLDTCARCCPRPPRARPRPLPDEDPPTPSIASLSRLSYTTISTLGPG
# procedureDetails: Inhibition of the gastrin-induced increase of cytosolic calcium in rabbit gastric mucosa cells
# Format: cell-based
# measurementConditions: cells stimulated with 5×10^-8 gastrin, [Ca2+]i
# Description: The parietal cells of the gastric mucosa are responsible for the secretion of HCl. They present specific membrane receptors which may be activated by gastrin and which have been defined as type-B cholecystokynin (CCK-B) or gastrin receptors. […]
attributeMeasured: IC50 (nM)

compound="O=C(O)CC(CC(=O)Nc1cc2ccccc2cc1C(=O)N1CCC2(CCCCC2)CC1)c1cccc2ccccc12 (stereo not shown) [Compound 18]" attributemeasured=IC50 inequalitysign== reported=105
compound="Cc1ccc(NC(=O)CC(CC(=O)O)c2cccc3ccccc23)c(C(=O)N2CCC3(CCCC3)CC2)c1 (stereo not shown) [Compound 3]" attributemeasured=IC50 inequalitysign== reported=30
compound="COc1cc(NC(=O)CC(CC(=O)O)c2cccc3ccccc23)c(C(=O)N2CCC3(CCCC3)CC2)cc1OC (stereo not shown) [Compound 10]" attributemeasured=IC50 inequalitysign=> reported=300
compound="O=C(O)CC(CC(=O)Nc1cc(Cl)ccc1C(=O)N1CCC2(CCCC2)CC1)c1cccc2ccccc12 (stereo not shown) [Compound 6]" attributemeasured=IC50 inequalitysign== reported=140
compound="Cc1cc(C)c(NC(=O)CC(CC(=O)O)c2cccc(Cl)c2)c(C(=O)N2CCC3(CCCC3)CC2)c1 (stereo not shown) [Compound 16]" attributemeasured=IC50 inequalitysign== reported=82
compound="O=C(O)CC(CC(=O)Nc1cc2ccccc2cc1C(=O)N1CCC2(CCCC2)CC1)c1cccc2ccccc12 (racemic) [Compound 13]" attributemeasured=IC50 inequalitysign== reported=37
compound="Cc1cc(C)c(NC(=O)CC(CC(=O)O)c2cccc3ccccc23)c(C(=O)N2CCC3(CCCC3)CC2)c1 (stereo not shown) [Compound 4]" attributemeasured=IC50 inequalitysign== reported=4

====

# measuredTarget: central CCK-B receptor (Cavia porcellus, UniProt H0VZC5)
# Construct: The cerebral cortices of male albino guinea pigs were therefore used; from tissue; host or cells: cerebral cortex membranes of male albino guinea pigs
# procedureDetails: Inhibition of binding of [3H][N-methyl-N-leucine]CCK-8 to guinea pig cortical membranes (anti-CCK-B in vitro)
# measurementConditions: displacement of [3H][N-methyl-N-leucine]CCK-8, cortical membrane in guinea pigs; read-out: IC50
// reported IC50 for each item listed
attributeMeasured: IC50 (nM)

molecule="CSCC[C@H](NC(=O)[C@H](Cc1c[nH]c2ccccc12)NC(=O)CCNC(=O)OC(C)(C)C)C(=O)N[C@@H](CC(=O)O)C(=O)N[C@@H](Cc1ccccc1)C(N)=O [Pentagastrin, reference compound]" attributemeasured=IC50 reported=3
molecule="O=C(O)CC(CC(=O)Nc1cc2ccccc2cc1C(=O)N1CCC2(CCCCC2)CC1)c1cccc2ccccc12 (stereo not drawn)" attributemeasured=IC50 reported=661
molecule="Cc1cc(C)c(NC(=O)CC(CC(=O)O)c2cccc(Cl)c2)c(C(=O)N2CCC3(CCCC3)CC2)c1 (stereo not drawn)" attributemeasured=IC50 reported=395

====

// reported ED50 for each item listed
# Tested on: acid secretion induced by pentagastrin
# procedureDetails: In vivo gastric anti-secretory activity in the anaesthetised rat, pentagastrin stimulation
# measurementConditions: iv; I.V. bolus, rat, pentagastrin perfusion; read-out: Activity (ID50)
attributeMeasured: ED50 (mg/kg)

compound="Cc1cc(C)c(NC(=O)CC(CC(=O)O)c2cccc3ccccc23)c(C(=O)N2CCC3(CCCC3)CC2)c1 (stereo not drawn)" inequalitysign== reported=0.2
compound="O=C(O)CC[C@@H](NC(=O)c1cc(Cl)cc(Cl)c1)C(=O)N1CCC2(CCCC2)CC1 [CR 2194, reference compound]" inequalitysign== reported=11
compound="O=C(O)CC(CC(=O)Nc1c(Cl)cccc1C(=O)N1CCC2(CCCC2)CC1)c1cccc2ccccc12 (stereo not drawn)" inequalitysign== reported=2.6
compound="CN/C(=N/CCSCc1nc[nH]c1C)NC#N [Cimetidine, cimetidine, reference compound]" inequalitysign== reported=2.5
compound="O=C(O)CCC(NC(=O)c1cccc2ccccc12)C(=O)Nc1cccc(C(=O)N2CCC3(CCCC3)CC2)c1 (stereo not drawn)" inequalitysign=> reported=10
compound="O=C(O)CC(CC(=O)Nc1cc2ccccc2cc1C(=O)N1CCC2(CCCC2)CC1)c1cccc2ccccc12 (racemic)" inequalitysign== reported=1

====

// reported log10 of IC50 for each item listed
# measuredTarget: central CCK-B receptor (Cavia porcellus)
# Construct: The cerebral cortices of male albino guinea pigs were therefore used; from tissue; host or cells: cerebral cortex membranes of male albino guinea pigs
# Sequence (H0VZC5 1-426): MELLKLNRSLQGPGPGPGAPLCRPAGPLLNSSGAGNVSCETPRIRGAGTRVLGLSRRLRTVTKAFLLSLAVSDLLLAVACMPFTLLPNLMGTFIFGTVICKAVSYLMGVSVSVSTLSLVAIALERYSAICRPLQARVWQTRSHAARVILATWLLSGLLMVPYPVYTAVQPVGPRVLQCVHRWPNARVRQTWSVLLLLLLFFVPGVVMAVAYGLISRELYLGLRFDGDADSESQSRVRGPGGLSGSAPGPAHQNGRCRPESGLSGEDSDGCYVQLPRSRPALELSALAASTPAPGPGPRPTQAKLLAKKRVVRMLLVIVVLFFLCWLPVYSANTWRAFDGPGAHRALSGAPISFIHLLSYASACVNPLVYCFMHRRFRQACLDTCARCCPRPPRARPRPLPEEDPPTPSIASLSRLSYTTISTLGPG
# procedureDetails: Inhibition of binding of [3H][N-methyl-N-leucine]CCK-8 to guinea pig cortical membranes (anti-CCK-B in vitro)
# measurementConditions: displacement of [3H][N-methyl-N-leucine]CCK-8, cortical membrane in guinea pigs; read-out: IC50
attributeMeasured: log10 of IC50 (log10 of the value in nM)

compound="O=C(O)CC(CC(=O)Nc1cc2ccccc2cc1C(=O)N1CCC2(CCCC2)CC1)c1cccc2ccccc12 (racemic) [Compound 13]" attributemeasured="log10 of IC50" reported=2.35
compound="Cc1cc(C)c(NC(=O)CC(CC(=O)O)c2cccc3ccccc23)c(C(=O)N2CCC3(CCCC3)CC2)c1 (stereo not shown) [Compound 4]" attributemeasured="log10 of IC50" reported=1.38
compound="COc1cc(NC(=O)CC(CC(=O)O)c2cccc3ccccc23)c(C(=O)N2CCC3(CCCC3)CC2)cc1OC (stereo not shown) [Compound 10]" attributemeasured="log10 of IC50" reported=2.91
compound="O=C(O)CC(CC(=O)Nc1cc(Cl)ccc1C(=O)N1CCC2(CCCC2)CC1)c1cccc2ccccc12 (stereo not shown) [Compound 6]" attributemeasured="log10 of IC50" reported=3.09
compound="Cc1ccc(NC(=O)CC(CC(=O)O)c2cccc3ccccc23)c(C(=O)N2CCC3(CCCC3)CC2)c1 (stereo not shown) [Compound 3]" attributemeasured="log10 of IC50" reported=2.27
